- Protocol Text: Cell Viability - LYMP2-013 (AID 970);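 also: cells exposed to compound for 24 h at 37 °C; nearly all actives have a fitted effect of over 55% in size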
- Experimental Conditions: LYMP2-013 lymphoblastoid cells viability; series mostly up to 92.2 µM
Records with an inconclusive call do not appear. Activity calls are given as the source filed them. Calls follow the shape of the dose curve; as a rule, active = well fitted cell-killing curve with a large enough effect; inconclusive = small, poorly fitted or top-dose-only effect; inactive = flat fitted curve, though single readings scatter.
Field 'call' accepts active, inactive

stdin: Hello, I am checking results. What call was entered for CC(=O)O[C@]1(C(C)=O)CC[C@H]2[C@@H]3C=C(Cl)C4=CC(=O)[C@@H]5C[C@@H]5[C@]4(C)[C@H]3CC[C@@]21C ?
stdout: inactive

stdin: Hello, I am checking results. What call was entered for CC1=C(/C=C/C(C)=C/C=C/C(C)=C/C(=O)Nc2ccc(O)cc2)C(C)(C)CCC1 ?
stdout: active

stdin: Hello, I am checking results. What call was entered for O=c1[nH]cnc2c1ncn2[C@H]1CC[C@@H](CO)O1 ?
stdout: inactive

stdin: Hello, I am checking results. What call was entered for O=c1c(-c2ccc(O)cc2)coc2cc(O)ccc12 ?
stdout: inactive

stdin: Hello, I am checking results. What call was entered for CN(C)CCC(c1ccccc1)c1ccccn1 (stereo not drawn) ?
stdout: inactive

stdin: Hello, I am checking results. What call was entered for O=C1NC(=O)C(c2ccccc2)(c2ccccc2)N1 ?
stdout: inactive

stdin: Hello, I am checking results. What call was entered for CCn1cc(C(=O)O)c(=O)c2ccc(C)nc21 ?
stdout: inactive

stdin: Hello, I am checking results. What call was entered for CC(=O)c1ccc(S(=O)(=O)NC(=O)NC2CCCCC2)cc1 ?
stdout: inactive
